B1: TPR t1 (parent)
chain: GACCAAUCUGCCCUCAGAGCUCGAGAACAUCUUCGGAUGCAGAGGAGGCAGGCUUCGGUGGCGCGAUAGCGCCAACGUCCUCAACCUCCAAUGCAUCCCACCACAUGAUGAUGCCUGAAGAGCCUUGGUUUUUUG

variants of: B1; test: polymerase ribozyme fitness, log enrichment relative to wild type (log ratio); higher = more active; in vitro selection for triplet polymerase activity
Criterion: polymerase ribozyme fitness (log ratio) meeting or surpassing -2. Met: yes. Not met: no.

Request: Decide: polymerase ribozyme fitness (log ratio) of `GACCAAUGUGCCCUCAGAGCUCGAGAACAUCUUCGGAUGCAGAGGAGUCAGGCUUCGGUGGCGCGAUAGCGCCAACGUCCUCAACCUCCAAUGCAUCCCACCACAUGAUGAUACCUGAAGAGCCUCGGUUUUUUG` >= -2?
Result: yes

Request: Try `GACCAAUCUGCCCUCAGAGCUCGAGAACAUCUUCGGAUGCAGAGGAGGCAGGCUUCGGUGGCGCGAUUGCGCCAACGUCCUCAACCUCCAAUGCAUCCCACCACAUGAUGAUGCCUGAACAGCCUUGGUUUUUUG` next.
Result: no

Request: Try `GACCAAUGUGCCCUCAGAGCUCGAGAACAUCUUCGGAUGCAGAGGUGGCAGGCUUCGGUGGCGCGAUAGCGCCAACGUCCUCAACCUCCAAUGCAUCCCACCAAACGAUGAUGCCCGAAGAGCCUUGGUUUUUUG` next.
Result: no

Request: Try `GACCAAUCUGCCCUCAGAGCUCGAGAACAUCUUCGGAUGCAGAGCAGGCAGGCUUCGGUGGCGCGAUAGCGCCAACGUCCUCAGCCUCCAAUGCAUACCACCACAUGAUGAUGCCUGAAGAGCCUUGGUUUUUUG` next.
Result: no

Request: Try `GACCAAUCUGCCCUCAGAGCUCGAGAACAUCUUCGGAUGCAGAGGAGGCAGACUUCGGUGGCGCGAUAGCGGCAACGUCCUCAACCUCCAAUGCAUCCCACCACAUGAUGAUGCCUGAAGAGCCUUGCUGUUUUG` next.
Result: yes

Request: Try `GACCAAUCUGCCCUCAGAGCUCGAGAACAUCUUCGGAUGCAGAGGACGCAGGCUUCGGUGGCGCGAUAGCGCCAACGUCCUCAACCUCCAAUGCAUCCCACCACAUGAUGAUCCCUGAAGAGCCUUGGUUUUUUG` next.
Result: no

Request: Try `GACCAAUCUGCCCUCAGAGCUCGAGAACAUCUUCGGAUGCAGAGGAGGCAGGCUUCGGUGGCGCGAUAGCGUCAACGUCCUCAACCUCCAAUGCAUCCCACCACAUGAUGAUGCCUGAACAGCCUUGGUUUUUUG` next.
Result: yes

Request: Try `GACCAAUAUGCCCUCAGAGCUCGAGAACAUCUUCGGAUGCAGAGGAGGCAGGCUUCGGUGGCGCGAUAGCGCCAACGUCCUCAACCUCCAAUGCAUCCCACCACAUGAUGAUGCCUGAAGAGCCUUGGUUUUUUA` next.
Result: yes

Request: Try `GACCAAUCUGCCCUCAGAGCUCGAGAACAUCUUCGGAUGCAGAGGAGGCAGGCUUCGGUGGGGCGAUAGCGCCAACGUCCUCAACCUCCAAUGCAUCCCACCACAUGAUAAUGCCUGAAGAGCCUGGGUUUUUUG` next.
Result: no

Request: Try `GACCAAUCUGCCCUCAGAGCUCGAGAACAUCUUCGGAUGCAAAGGAGGCAGGCUUCGGUGGCGCGAUAGAGCCAACGUCCUCAUCCUCCAACGCAACCCACGACAUGAUGAUGCCUGAAGAGCGUUGGUUUUUUG` next.
Result: no

Request: Try `GACCUAUCUGACCUCAGAGCUCGAGAACAUCUUCGGAUGCAGAGGAGGCAGGCUUCGUUGGCGCGAUAGUGCCAACGUCCUCAACCUCCAAUGCAUCCCAUCACAUGAUGAUGCCUGAAGAGCCUUGGUUUUUUG` next.
Result: no

Request: Try `GACCAAUCUGCCCUUAGAGCUCGAGAACAUCUUCGGAUGCAGAGGAGGCAGGCUUCGGUGGCGCGAUAGCGACAACGUCCUUAACCUCCAAUGCAUCCCACCACAUGAUGAUGCCUGAAGAGCCUUGGUUUUUUG` next.
Result: yes

Request: Try `GACCAAUCAGCCCUCAGAGCUCGAGAACAUCUUCGGAUGCAGAGGAGGCAGGCUUCGGUGGCGCGAUAGCGCCAACGUCCUCAACCUCCAAUGCAUCCCUCCACAUGAUGAUGCCUGAAGAGCCUUGGUUUUUUG` next.
Result: yes

Request: Try `GACCAAUCUACCCUCAGAGCUCGAGAACAUCUUCGGAUGCAUAGGAGGCAGGCUUCGGUGGCGCGAUAGCGCCAACGUCCUCAACCUCCAAUGCAUCCCACCACAUGAUGAUGCCUGAAGAGCCUUGGUUUUUUG` next.
Result: yes

Request: Try `GACCAAUCUGCCCGCAGAGCUUGAGAACGUCUUCGGAUGCAGAGGAGGCAGGCUUCGGUGACGCGAUAGCGCCAACGUCCUCAACCUCCAAUGCAUCCCACCACAUGAUGAUGCCUGAAGAGCGUUGGCUUUUUG` next.
Result: no

Request: Try `GACCAAUCUGCCCUCAGAGCUCGAGAAUAUCUUCGGAUGCAGAGGAGGCAGGCUUCGGUGGCGCGAUAGCGCCAACGUCCUCAACCUCCAAUGCAGCCCACCACAUGAUGAUGCCUGAAGAGCCUUGGUUUUUUG` next.
Result: no

Request: Try `GACCAAUCUCACCUCAGAGCUCGAGAACAUAUUCGGAUGCAGAGGAUGCAGGCUUCGGUGGCGCGAUAGCGCCAACGUCCUCAACCUCCAAUGCAUCCCACCACAUUAUGAUACCUGAAGAGCCUUGGUUUUUUG` next.
Result: no

Request: Try `GACCAAUCUGCCCUCAGAGCUCGAGAACAUCUUCGGAUGCAGAGGAGGCAGGCUUCGGUGGCGCGAUAGCGCCAACGUCCUCAACCUCCAAUGCAUCCCACCACAUGAUGAUGCCGGAAGAGCCAUGGUUUUAUG` next.
Result: no

Request: Try `GACCAAUCUGCCCUCAGAGCUCGAGAACAUCUUCGGAUGCAGAGGAGGCAGGCUUCGGUGGCCCGAUAGCGCCAACGUCCUCAACCUCCAAUGCAUCCCACCACAUGAUGAUGUCUGCAGAGCCUUGGUUUUUUG` next.
Result: no

Request: Try `GACCAAUCUGCACUCAGAGCUCGAGAACAUCUUCGGAUGCAGAGGAGGCAGGCUUCGGUGGCGCGAUAGCGCCAACGUCCUCAACCUCCAAUGCAUCUCACCACAUGAUCAUGCCUGAAGAGCCUUGGUUAUUUG` next.
Result: no

Request: Try `GACCAAUCUGCCCUCAGAGCUCGAGAACAUCUUCGGAUGAAGUGGAGGCAGGCUUCGGUGGCGCGAUAGUGCCAACGUCCUCAACUUCCAAUUCAUGCCACCACAUGAUGAUGCCUGAAGAGCCUUGGUUUUUUC` next.
Result: no

Request: Try `GACCAAUCUGUCCUCAGAGCUCGAGAACAUCUGCGGAUGCAGAGGAGGCAGGCUUCGGUGGCGCGAUAGCGCCAACGUCCUCAACCUCCAAUGCAUCCCACCACAUGAUGAUGCCUGAAGAGCCUUGGUUUUUUG` next.
Result: no

Request: Try `GACCAAUCUGCCCUCAGAGCUCGAGAACAUCUUCGGAUGCAGAGUAGGCAGGCUUCGGUGGCGCGAUAGCGCCAACGUCCUCAACCUCCAAUGCAUCCCACCACAUGAUGAUGCCUGAAGAGUCUUUGUUUUUUG` next.
Result: yes

Request: Try `GACCAAUCGGCCCUCAGAGCUCGAGAACAUCUUCGGAUACAGAGGAGGCAGGCUUCGGUGGCGCGAUAGCGCCAACGUCCUCAACCUCCAAUGCAUCCCACCACAUGAUGAUGCCUGAAGAGCCUUGGUUUUUUG` next.
Result: yes

Request: Try `GAUCAAUCUGCACUCAGAGCUCGAGAACAUCUUCGGAUGCAGAGGAGGCAGGCUUCGGUGGCGCGAUAGCGCCAACGUCCUCAACCUCCAUUGCAUCCCACCACAUGAUGAUGCCUGAAGAGCCUUGGUUUUUUG` next.
Result: no

Request: Try `GACCACUCUACCUUCAGAGCUCGAGAACAUCUUCGUAUGCAGAGGAGGCAUGCUUCGGUGGCGCGAUAGCGCCAACCUCCUCAACCUCCCAUGCAUCCCACCACAUGAUGAUGCCUGAAUAGCCUUGGUUUUUUG` next.
Result: no

Request: Try `GACCAAUCCGUCCUCAGAGCUCGAGAACAUCUUCGGAUGCAGAGGAGGCAGGCUUCGGUGGCGCGAUAGCACCAACGUCCUCAACCUCCAAUGCAUCCCACCACAUGAUGCUGCCUGAAGAGCCUUGGUUUUUUG` next.
Result: yes

Request: Try `GACCAAUCUGCCCUCAGAGCUCGAGAACAUCUGCGGAUGCAGAGGAGGCAGGCUUCGGUGGCGCGAUAGCGCCAACGUCCUCAACCUCCAAUGCAUCCCACCACAUGAUGAUGCCUGAAGAGCCUUGAUUUUUUG` next.
Result: no

Request: Try `GACCAAUCUGCCCUAAGAGCUCGAGAACAUCUUCGGAUGCAGAGGAGGCAGGCUUCGGUGGCGCGAUAGCGCCAACGUCCUCAACCUCCAAUGCAUCCCACCACAUGAGGAUACCUGAAGAGCCUUGGUUAUUUG` next.
Result: no

Request: Try `GACCAAUCUGCCCUCAGAGCUCGAGAACAUCUUCGGAUGCAGAGGAGGCAGGCUUCGGUGGCGCGAUAGCGCCAACGUCCUCAACCUCCCAUGCAUCCCUCCACAUGAUGGUGCCUGAAGAGCCUUGGUUUUUUG` next.
Result: yes
